# Experimental target: cynomolgus LIV-1 (cynomolgus, UniProt A0A2K5WH46 30-741)
# Sequence (A0A2K5WH46 entry or part of it): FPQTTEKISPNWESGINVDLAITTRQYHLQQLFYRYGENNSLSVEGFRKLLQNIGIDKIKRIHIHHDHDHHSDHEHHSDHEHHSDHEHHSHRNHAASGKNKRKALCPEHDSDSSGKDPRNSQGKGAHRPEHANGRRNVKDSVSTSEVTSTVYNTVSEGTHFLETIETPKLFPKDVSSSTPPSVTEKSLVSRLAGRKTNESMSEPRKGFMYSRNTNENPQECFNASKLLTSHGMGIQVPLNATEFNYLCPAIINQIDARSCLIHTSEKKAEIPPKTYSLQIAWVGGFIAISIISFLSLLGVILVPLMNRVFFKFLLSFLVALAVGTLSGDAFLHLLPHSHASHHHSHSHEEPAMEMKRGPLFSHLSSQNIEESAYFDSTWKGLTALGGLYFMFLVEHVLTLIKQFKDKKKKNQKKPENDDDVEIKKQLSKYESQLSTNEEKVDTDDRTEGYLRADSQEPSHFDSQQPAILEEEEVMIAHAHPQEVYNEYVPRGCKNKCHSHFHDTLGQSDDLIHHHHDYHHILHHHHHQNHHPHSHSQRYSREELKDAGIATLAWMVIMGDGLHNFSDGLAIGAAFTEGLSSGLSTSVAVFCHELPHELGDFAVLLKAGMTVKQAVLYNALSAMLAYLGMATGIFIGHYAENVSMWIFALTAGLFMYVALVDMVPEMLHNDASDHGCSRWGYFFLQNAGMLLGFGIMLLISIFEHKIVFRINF
# Assay comment: FACS, cyno LIV-1 cells
Experimental endpoint: Top (MFI)
Number only, in MFI; omit the unit.

Binder	Top (MFI)
290F10G10.p1.Z17 (antibody, V domains shown) VH: EIQLVQSGAEVKKPGASVKVSCKASGYTFTSYWIHWVREAPGQGLEWIGTIYPGDADTRSTQKFKDKATVTADKSTSTVYMELSSLRSEDTAVYYCTRSLIHDDYDKYYFDYWGQGTTVTVSS VL: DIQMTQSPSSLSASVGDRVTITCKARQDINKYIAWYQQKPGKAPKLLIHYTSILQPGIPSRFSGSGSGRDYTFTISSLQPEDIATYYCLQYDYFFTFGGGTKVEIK	6820

API: the following record is the query input.
# input Looking for the measured Top (MFI) of 290F10G10.p1.Z9 (antibody, V domains shown) VH: EVQLVQSGAEVKKPGASVKVSCKASGYTFTSYWIHWVRQAPGQGLEWIGTIYPGDADTRSTQKFKDKATVTADKSTSTVYMELSSLRSEDTAVYYCARSLIHDDYDKYYFDYWGQGTTVTVSS VL: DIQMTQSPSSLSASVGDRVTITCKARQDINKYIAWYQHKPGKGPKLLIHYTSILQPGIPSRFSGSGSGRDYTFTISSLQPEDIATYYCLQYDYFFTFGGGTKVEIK , can you help?
# output 7630

# credit: patent US20240325555A1
